tested on: PSN1 cells; test: cells; settings: Homo sapiens, PSN1, 72 h, read-out: TGI
Assign log10 IC (TGI) to each entry below.
Heads up, the numbers here are log10 of IC (TGI) in nM units.

Below: 5 compounds and their reported log10 IC (TGI).
[[record]]
compound = "COc1ccc2[nH]c3c(c2c1)C[C@@H](CO)N[C@]31CS[C@@H]2c3c(OC(C)=O)c(C)c4c(c3[C@H](COC1=O)N1[C@@H]2[C@H]2c3c(cc(C)c(OC)c3O)C[C@@H]([C@@H]1C#N)N2C)OCO4 [Compound 18-S]"
targetentity = "PSN1 cells"
experimentalresult = 0.13

[[record]]
compound = "COc1ccc2[nH]c3c(c2c1)C[C@@H](CN)N[C@]31CS[C@@H]2c3c(OC(C)=O)c(C)c4c(c3[C@H](COC1=O)N1[C@@H]2[C@H]2c3c(cc(C)c(OC)c3O)C[C@@H]([C@@H]1C#N)N2C)OCO4 [Compound 26-S]"
targetentity = "PSN1 cells"
experimentalresult = 0.52

[[record]]
compound = "COc1c(C)cc2c(c1O)[C@@H]1[C@@H]3[C@@H]4SC[C@]5(N[C@@H](C)Cc6c5[nH]c5ccccc65)C(=O)OC[C@@H](c5c6c(c(C)c(OC(C)=O)c54)OCO6)N3[C@@H](O)[C@H](C2)N1C [D]"
targetentity = "PSN1 cells"
experimentalresult = 1.34

[[record]]
compound = "COc1c(C)cc2c(c1O)[C@@H]1[C@@H]3[C@@H]4SC[C@]5(N[C@H](C(=O)O)Cc6c5[nH]c5ccccc65)C(=O)OC[C@@H](c5c6c(c(C)c(OC(C)=O)c54)OCO6)N3[C@@H](O)[C@H](C2)N1C [Compound 15-S]"
targetentity = "PSN1 cells"
experimentalresult = 2.67

[[record]]
compound = "COc1ccc2[nH]c3c(c2c1)C[C@H](C(=O)O)N[C@]31CS[C@@H]2c3c(OC(C)=O)c(C)c4c(c3[C@H](COC1=O)N1[C@@H]2[C@H]2c3c(cc(C)c(OC)c3O)C[C@@H]([C@@H]1C#N)N2C)OCO4 [Compound 28-R]"
targetentity = "PSN1 cells"
experimentalresult = 1.55


Give log10 IC (TGI) for each of the items listed below.
1. COc1ccc2[nH]c3c(c2c1)CCN[C@]31CS[C@@H]2c3c(OC(C)=O)c(C)c4c(c3[C@H](COC1=O)N1[C@@H]2[C@H]2c3c(cc(C)c(OC)c3O)C[C@@H]([C@@H]1O)N2C)OCO4 [PM01183]
2. COc1c(C)cc2c(c1O)[C@@H]1[C@@H]3[C@@H]4SC[C@]5(N[C@@H](CO)Cc6c5oc5ccccc65)C(=O)OC[C@@H](c5c6c(c(C)c(OC(C)=O)c54)OCO6)N3[C@@H](C#N)[C@H](C2)N1C [Compound 38-R]

Data returned:
1. 0.60
2. 0.00

====

test system: PSN1 cells; assay: cells; details: Homo sapiens, PSN1, 72 h, read-out: TGI
measuredAttribute: log10 of IC (TGI) (log10 of the value in nM)
Heads up, the numbers here are log10 of IC (TGI) in nM units.

Below: 8 compounds and their reported log10 of IC (TGI).
[[record]]
chemicalstructure = "COc1ccc2oc3c(c2c1)CCN[C@]31CS[C@@H]2c3c(OC(C)=O)c(C)c4c(c3[C@H](COC1=O)N1[C@@H]2[C@H]2c3c(cc(C)c(OC)c3O)C[C@@H]([C@@H]1O)N2C)OCO4"
experimentalresult = 0.96

[[record]]
chemicalstructure = "COc1ccc2[nH]c3c(c2c1)C[C@H](CN)N[C@]31CS[C@@H]2c3c(OC(C)=O)c(C)c4c(c3[C@H](COC1=O)N1[C@@H]2[C@H]2c3c(cc(C)c(OC)c3O)C[C@@H]([C@@H]1O)N2C)OCO4"
experimentalresult = 0.07

[[record]]
chemicalstructure = "COc1ccc2[nH]c3c(c2c1)C[C@H](CO)N[C@]31CS[C@@H]2c3c(OC(C)=O)c(C)c4c(c3[C@H](COC1=O)N1[C@@H]2[C@H]2c3c(cc(C)c(OC)c3O)C[C@@H]([C@@H]1C#N)N2C)OCO4"
experimentalresult = 0.03

[[record]]
chemicalstructure = "COc1c(C)cc2c(c1O)[C@@H]1[C@@H]3[C@@H]4SC[C@]5(NCCc6c5oc5ccccc65)C(=O)OC[C@@H](c5c6c(c(C)c(OC(C)=O)c54)OCO6)N3[C@@H](C#N)[C@H](C2)N1C"
experimentalresult = 1.20

[[record]]
chemicalstructure = "COc1c(C)cc2c(c1O)[C@@H]1[C@@H]3[C@@H]4SC[C@]5(N[C@@H](CO)Cc6c5[nH]c5ccccc65)C(=O)OC[C@@H](c5c6c(c(C)c(OC(C)=O)c54)OCO6)N3[C@@H](C#N)[C@H](C2)N1C"
experimentalresult = -0.22

[[record]]
chemicalstructure = "C=CCOC(=O)NC[C@@H]1Cc2c([nH]c3ccc(OC)cc23)[C@@]2(CS[C@@H]3c4c(OC(C)=O)c(C)c5c(c4[C@H](COC2=O)N2[C@@H]3[C@H]3c4c(cc(C)c(OC)c4O)C[C@@H]([C@@H]2C#N)N3C)OCO5)N1"
experimentalresult = 0.97

[[record]]
chemicalstructure = "COc1c(C)cc2c(c1O)[C@@H]1[C@@H]3[C@@H]4SC[C@]5(N[C@H](COC(C)=O)Cc6c5[nH]c5ccccc65)C(=O)OC[C@@H](c5c6c(c(C)c(OC(C)=O)c54)OCO6)N3[C@@H](C#N)[C@H](C2)N1C"
experimentalresult = 0.56

[[record]]
chemicalstructure = "C=CCOC(=O)NC[C@H]1Cc2c([nH]c3ccc(OC)cc23)[C@@]2(CS[C@@H]3c4c(OC(C)=O)c(C)c5c(c4[C@H](COC2=O)N2[C@@H]3[C@H]3c4c(cc(C)c(OC)c4O)C[C@@H]([C@@H]2C#N)N3C)OCO5)N1"
experimentalresult = 0.37


// next item, log10 of IC (TGI) requested
Data request: What value of measured log10 of IC (TGI) is listed for COc1ccc2oc3c(c2c1)CCN[C@]31CS[C@@H]2c3c(OC(C)=O)c(C)c4c(c3[C@H](COC1=O)N1[C@@H]2[C@H]2c3c(cc(C)c(OC)c3O)C[C@@H]([C@@H]1C#N)N2C)OCO4 ?
Data returned: 1.77

These measurements were taken from patent US10538535B2.
